STUDY_TARGET: RSV (Long strain) F protein on infectious virus (respiratory syncytial virus (Long strain)) (UniProt P12568)
Sequence (P12568 26-574): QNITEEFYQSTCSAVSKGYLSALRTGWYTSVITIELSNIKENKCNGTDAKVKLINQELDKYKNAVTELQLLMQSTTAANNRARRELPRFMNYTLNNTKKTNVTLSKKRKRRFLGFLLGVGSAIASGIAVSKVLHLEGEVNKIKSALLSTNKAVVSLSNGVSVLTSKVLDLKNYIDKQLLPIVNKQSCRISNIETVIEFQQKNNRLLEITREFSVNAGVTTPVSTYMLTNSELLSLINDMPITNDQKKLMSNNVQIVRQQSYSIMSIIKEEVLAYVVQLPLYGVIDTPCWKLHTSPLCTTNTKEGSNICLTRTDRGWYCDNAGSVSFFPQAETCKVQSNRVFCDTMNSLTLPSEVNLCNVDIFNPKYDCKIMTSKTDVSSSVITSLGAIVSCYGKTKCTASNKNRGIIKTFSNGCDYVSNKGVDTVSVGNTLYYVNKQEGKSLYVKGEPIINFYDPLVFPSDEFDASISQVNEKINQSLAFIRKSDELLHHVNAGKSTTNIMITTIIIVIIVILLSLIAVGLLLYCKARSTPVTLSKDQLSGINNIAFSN
ASSAY_TEXT: cell-based or functional assay
Measured Fold Difference (Control IC50), against palivizumab values are reported for all entries that follow.
MEASUREMENT_LABEL: Fold Difference (Control IC50), against palivizumab

A8c7 monoclonal antibody (antibody, V domains shown) VH: QVTLRESGPALVKPTQTLTLTCTFSGFSLSTAGMSVGWIRQPPGKALEWLADIWWDDKKSYNPSLKDRLTISKDTSKNQVVLKVTNMDPADTATYYCARDMIFNWYFDVWGQGTTVTVSS VL: DIQMTQSPSTLSASVGDRVTITCSPSSRVGYMHWYQQKPGKAPKLLIYDTRYQSSGVPSRFSGSGSGTEFTLTISSLQPDDFATYYCFQGSGYPFTFGGGTKVEIK ... 14 fold
P12f4 Fab fragment (Fab, V domains shown) VH: QVTLRESGPALVKPTQTLTLTCTFSGFSLSTPGMSVGWIRQPPGKALEWLADIWWDGKKHYNPSLKDRLTISKDTSKNQVVLKVTNMDPADTATYYCARDMIFNFYFDVWGQGTTVTVSS VL: DIQMTQSPSTLSASVGDRVTITCSLSSRVGYMHWYQQKPGKAPKLLIYDTRGLPSGVPSRFSGSGSGTEFTLTISSLQPDDFATYYCFQGSGYPFTFGGGTKVEIK ... 15 fold
P12f2 Fab fragment (Fab, V domains shown) VH: QVTLRESGPALVKPTQTLTLTCTFSGFSLSTPGMSVGWIRQPPGKALEWLADIWWDDKKHYNPSLKDRLTISKDTSKNQVVLKVTNMDPADTATYYCARDMIFNFYFDVWGQGTTVTVSS VL: DIQMTQSPSTLSASVGDRVTITCSLSSRVGYMHWYQQKPGKAPKLLIYDTFYLSSGVPSRFSGSGSGTEFTLTISSLQPDDFATYYCFQGSGYPFTFGGGTKVEIK ... 16 fold
